- Test system: SR
- MEASUREMENT PROTOCOL: NCI tumour cell line growth inhibition, 48 h
Calls of active or inactive are those of the source. Rule as the data show it: active = GI50 up to about 1.1 µM and inactive = higher.
Outcomes you can answer with include only these: yes (1) (active), no (0) (inactive)

Check out these entries, answers already filled in.
O=S(=O)(c1ccccc1)C1CN2OC1(S(=O)(=O)c1ccccc1)CC21CCCCC1 (centres undefined)    no (0)
CCCCCCCCCCCCCCCCCCOCC(CO[PH](=O)O)OCCCCCCCCCCCCCCCCCC (centres undefined)    no (0)
CC(C)=CCC/C(C)=C/CC/C(C)=C/CC/C(C)=C/CC/C(C)=C/CC/C(C)=C/CC/C(C)=C/CC/C(C)=C/CC/C(C)=C/CO    no (0)
O=C(Nc1cccc([N+](=O)[O-])c1)/C(=N\NC(=O)c1ccncc1)c1nc2ccc([N+](=O)[O-])cc2nc1O    no (0)
O=C(COC(c1ccc(F)cc1)c1ccc(F)cc1)N1CCN(CCCc2ccccc2)CC1    no (0)
[O-][n+]1c2cc(CBr)c(CBr)cc2[n+]([O-])c2c(O)cccc21    yes (1)

Look up the recorded call for `Cn1c(=O)c2sc3cc4c(cc3c2c2ccccc21)sc1c(=O)n(C)c2ccccc2c14` in this test.
no (0)

Look up the recorded call for `COc1ccccc1NC(=O)CC(=O)n1nc(C)c(/N=N/c2ccccc2F)c1C` in this test.
no (0)

Look up the recorded call for `CCOC(=O)/C1=C(\C)N(Cc2ccccc2)C(=O)c2ccccc2C(=O)c2c(OC(C)=O)ccc(OC(C)=O)c21` in this test.
no (0)

----------
- Test system: NCI-H522
- MEASUREMENT PROTOCOL: NCI tumour cell line growth inhibition, 48 h
Active and inactive are the calls of the source. Rule as the data show it: active = GI50 up to about 1.1 µM and inactive = higher.
Outcomes you can answer with include only these: active, inactive

COC1C(O)C(C)OC(OC2C(Oc3cccc4c(O)c5c(=O)oc6ccc(C)c7c(=O)oc(c34)c5c67)OC(C)C(O)C2O)C1O (stereo not drawn)    active

Look up the recorded call for COC(=O)C1(C)CCc2c(ccc3ccccc23)C1=O (stereo not drawn) in this test.
inactive

Look up the recorded call for CC1=C/C(=N\OCC(=O)O)CC(c2ccc(C(C)C)cc2)C1 (stereo not drawn) in this test.
inactive

Look up the recorded call for `CCC(=O)Oc1c2ccsc2c(OC(=O)CC)c2ccsc12` in this test.
active

Look up the recorded call for N#CC(C(=O)/C(=N\NC(N)=O)C(C#N)c1ccccc1)c1ccccc1 (stereo not drawn) in this test.
inactive

Look up the recorded call for `Oc1ccc(C(O)(c2ccccc2)c2ccccc2)c2ccccc12` in this test.
inactive

Look up the recorded call for COc1ccc([S+]([O-])Cc2cc(OC)ccc2OC)cc1 (stereo not drawn) in this test.
inactive

Look up the recorded call for `O=c1c2ccccc2oc2c1ccc1ncccc12` in this test.
inactive

Look up the recorded call for `C(#C[C@@]12CCC[C@@H]1NCO2)c1ccc2c(c1)OCO2` in this test.
inactive

Look up the recorded call for CCN(CC)C(=O)CCNC(C)Cc1c[nH]c2ccccc12 (stereo not drawn) in this test.
inactive

Look up the recorded call for `O=C(Nc1cccs1)c1c(O)[nH]c(=S)[nH]c1=O` in this test.
inactive

Look up the recorded call for `O=C(Nc1cccc([N+](=O)[O-])c1)/C(=N\NC(=O)c1ccncc1)c1nc2ccc([N+](=O)[O-])cc2nc1O` in this test.
inactive

Look up the recorded call for `N#Cc1ccc2cc3c(cc2c1)OCO3` in this test.
inactive
